These entries and their values trace back to ChEMBL document CHEMBL1136773.

# TESTED_ON: Estrogen receptor (Homo sapiens)
# Sequence (whole entry): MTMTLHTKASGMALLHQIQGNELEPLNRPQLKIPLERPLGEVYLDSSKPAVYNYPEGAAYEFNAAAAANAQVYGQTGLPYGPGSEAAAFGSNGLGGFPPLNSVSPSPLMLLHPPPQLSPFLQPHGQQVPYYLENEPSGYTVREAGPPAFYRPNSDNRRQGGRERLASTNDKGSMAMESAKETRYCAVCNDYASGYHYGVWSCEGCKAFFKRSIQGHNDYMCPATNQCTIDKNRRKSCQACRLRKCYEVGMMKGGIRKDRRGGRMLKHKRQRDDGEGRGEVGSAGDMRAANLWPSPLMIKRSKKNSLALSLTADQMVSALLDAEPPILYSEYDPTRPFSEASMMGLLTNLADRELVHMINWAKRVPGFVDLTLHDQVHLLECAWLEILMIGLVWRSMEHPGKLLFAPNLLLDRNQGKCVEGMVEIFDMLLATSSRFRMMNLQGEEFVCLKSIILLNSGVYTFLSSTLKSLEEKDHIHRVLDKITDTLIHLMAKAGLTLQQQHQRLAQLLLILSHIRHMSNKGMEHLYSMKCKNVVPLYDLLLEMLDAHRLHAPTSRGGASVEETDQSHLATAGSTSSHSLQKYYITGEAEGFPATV
# ASSAY_OVERVIEW: Transcriptional antagonistic efficacy agains ER alpha at 10e-6 M by cotransfection in HEC-1 cells
# Type: functional, cell-based
QUANTITY: Efficacy (%)

COMPOUND: Oc1ccc(C(c2ccc(O)cc2)C2C3CCCC2CCC3)cc1 (stereo unspecified)
UNIT_NAME: %
Efficacy: 40

a = Oc1ccc(C2(c3ccc(O)cc3)C3CCCC2CCC3)cc1
b = CC12CCC(CC1=C(c1ccc(O)cc1)c1ccc(O)cc1)C2(C)C (stereo unspecified)
Query block: // compare measured Efficacy between a and b ; output the lower one State the label of the item chosen.
Result block: b

---

# TESTED_ON: Estrogen receptor (Homo sapiens)
# ASSAY_OVERVIEW: Binding affinity for purified human Estrogen receptor alpha was determined using a competitive radiometric binding assay with [3H]estradiol
QUANTITY: RBA (%)

P = Oc1ccc(C(=C2C3CCCC2CCC3)c2cccc(O)c2)cc1
Q = Oc1ccc(C(=C2C3CCCC2CCC3)c2ccc(O)c(O)c2)cc1
R = CC1(C)CC(=C(c2ccc(O)cc2)c2ccc(O)cc2)C[C@]2(C)C(C)(C)[C@H]3CC[C@@]12C3
S = Oc1ccc(C(=C2C3CCCC2CCC3)c2ccc(O)cc2)cc1
Query block: I'd appreciate it if you sorted the entries above by their RBA, lowest to highest. Please reply with the labels ordered as requested. Many thanks.
Result block: R, P, Q, S

1 = Oc1ccc(C(=C2CCCCC2)c2ccc(O)cc2)cc1
2 = Oc1ccc(C(=C2C3CCCC2CCC3)c2ccc(F)cc2)cc1
3 = CC12CCC(C1)C(C)(C)C2=C(c1ccc(O)cc1)c1ccc(O)cc1 (centres undefined)
Query block: Sort the molecules on RBA; start with the lowest figure. Please reply with the labels ordered as requested. Many thanks.
Result block: 3, 2, 1

I = Oc1ccc(C(=C2C3CCCC2CCC3)c2ccccc2)cc1
II = Oc1ccc(C(=C2CC3CC2C2CCCC32)c2ccc(O)cc2)cc1 (centres undefined)
Query block: // compare measured RBA between I and II ; output the lower one State the label of the item chosen.
Result block: I
(I: 31%, II: 97%)

---

# TESTED_ON: Estrogen receptor (Homo sapiens) (UniProt P03372)
# ASSAY_OVERVIEW: Transcriptional antagonistic efficacy agains ER alpha at 10e-6 M by cotransfection in HEC-1 cells
# Type: functional, cell-based
QUANTITY: Efficacy (%)

COMPOUND: CC12CCC(C1)C(C)(C)C2=C(c1ccc(O)cc1)c1ccc(O)cc1 (stereo not drawn)
Efficacy (%): 18

A = Oc1ccc(C(=C2C3CC4CC(C3)CC2C4)c2ccc(O)cc2)cc1
B = Oc1ccc(C(=C2C3CCCC2CCC3)c2ccc(O)c(O)c2)cc1
Query block: Among A and B , which shows a numerically higher Efficacy result? State the label of the item chosen.
Result block: B
(B: 38%, A: 19%)
